# Test system: carrageenan induced paw edema
# assayNotes: Anti-inflammatory activity: acute carrageenan induced paw edema in rats
# Assay type: in vivo, Wister rats
# measurementParameters: 4 h; 10 mg kg^−1 indomethacin mol equivalent, intraperitoneally; mean ± SE
propertyName: log10(Mean edema thickness) (log10 of the value in mm)
Answers are given as log10 of Mean edema thickness in mm.

COc1cc(/C=C/C(=O)CC(=O)/C=C/c2ccc(OC(=O)[C@@H](NC(=O)OC(C)(C)C)C(C)C)c(OC)c2)ccc1OC(=O)[C@@H](NC(=O)OC(C)(C)C)C(C)C yielded log10(Mean edema thickness) of -0.10

COc1cc(/C=C/C(=O)CC(=O)/C=C/c2ccc(OC(=O)[C@H](CCC(N)=O)NC(=O)OCc3ccccc3)c(OC)c2)ccc1OC(=O)[C@H](CCC(N)=O)NC(=O)OCc1ccccc1 yielded log10(Mean edema thickness) of -0.11

COc1cc(/C=C/C(=O)CC(=O)/C=C/c2ccc(OC(=O)[C@@H](NC(=O)OCC3c4ccccc4-c4ccccc43)C(C)C)c(OC)c2)ccc1OC(=O)[C@@H](NC(=O)OCC1c2ccccc2-c2ccccc21)C(C)C yielded log10(Mean edema thickness) of -0.18

COc1cc(/C=C/C(=O)CC(=O)/C=C/c2ccc(OC(=O)[C@H](CCC(N)=O)NC(=O)OC(C)(C)C)c(OC)c2)ccc1OC(=O)[C@H](CCC(N)=O)NC(=O)OC(C)(C)C yielded log10(Mean edema thickness) of -0.08

COc1cc(/C=C/C(=O)CC(=O)/C=C/c2ccc(OC(=O)[C@@H](N)CCSC)c(OC)c2)ccc1OC(=O)[C@@H](N)CCSC.Cl.Cl yielded log10(Mean edema thickness) of -1.40

COc1cc(/C=C/C(=O)CC(=O)/C=C/c2ccc(OC(=O)[C@@H](N)CCC(N)=O)c(OC)c2)ccc1OC(=O)[C@@H](N)CCC(N)=O.Cl.Cl yielded log10(Mean edema thickness) of -0.09

* * *

Listed here are molecules together with their documented IC50.
# Tested on: PC3 (prostate) carcinoma cell line
# assayNotes: Anti-tumor properties, MTT
# Format: cell-based
# measurementParameters: Homo sapiens

Field: example entries. Status: answers known.
[[record]]
molecule = "CC[C@H](C)[C@H](N)C(=O)Oc1ccc(/C=C/C(=O)CC(=O)/C=C/c2ccc(OC(=O)[C@@H](N)[C@@H](C)CC)c(OC)c2)cc1OC.Cl.Cl [HCl-L-Ile-Cur]"
reading = "34.4 µM"

[[record]]
molecule = "COc1cc(/C=C/C(=O)CC(=O)/C=C/c2ccc(OC(=O)[C@H](CCC(N)=O)NC(=O)OC(C)(C)C)c(OC)c2)ccc1OC(=O)[C@H](CCC(N)=O)NC(=O)OC(C)(C)C"
reading = "39.1 µM"


Now consider a different molecule.
COc1cc(/C=C/C(=O)CC(=O)/C=C/c2ccc(OC(=O)[C@@H](N)C(C)C)c(OC)c2)ccc1OC(=O)[C@@H](N)C(C)C.Cl.Cl [HCl-L-Val-Cur] yielded IC50 of 34.6 µM
